tested on: Botrytis cinerea; test: Botrytis Test (Bean)/Protective; assay type: in vivo; conditions: 48 h, protective, evaluated 2 days after inoculation, read-out: Efficacy in %
measuredAttribute: pest or weed control at 500 g/ha (%)
Give the value in % but do not write % after it.

Given the entry Cc1nc(C(F)(F)F)c(C(=O)Nc2ccc(F)cc2-c2ccc(Cl)c(F)c2)s1 [drawing 70] , report its measured pest or weed control at 500 g/ha.
100

Given the entry Cc1nc(C(F)F)c(C(=O)Nc2ccc(F)cc2-c2ccc(Cl)c(Cl)c2)s1 [drawing 65] , report its measured pest or weed control at 500 g/ha.
100

Given the entry Cc1nc(C(F)F)c(C(=O)Nc2ccc(F)cc2-c2cccc(C)c2F)s1 [drawing 73] , report its measured pest or weed control at 500 g/ha.
98

Given the entry Cc1nc(C(F)(F)F)c(C(=O)Nc2c(F)cccc2-c2ccc(Cl)c(Cl)c2)s1 [drawing 68] , report its measured pest or weed control at 500 g/ha.
98

* * *

experiment: Log P determination by HPLC on reversed-phase column (EEC Directive 79/831, Annex V.A8); format: physicochemical; conditions: reversed-phase HPLC column (C18); HPLC, C18 reversed phase, 43° C., acidic range (pH 2.3); read-out: Log P
Would you mind telling me the reported chromatographic logP of each entry?
Reply with just the number.

Given the entry Cc1nc(C(F)(F)F)c(C(=O)Nc2ccc(F)cc2-c2ccc(Cl)c(Cl)c2)s1 [Compound 2.11] , report its measured chromatographic logP.
3.93

Given the entry Cc1nc(C(F)(F)F)c(C(=O)Nc2ccc(F)cc2-c2ccc(Cl)c(C)c2)s1 [Compound 2.20] , report its measured chromatographic logP.
3.99

Given the entry Cc1nc(C(F)F)c(C(=O)Nc2c(F)cccc2-c2ccc(Cl)c(F)c2)s1 [Compound 2.16] , report its measured chromatographic logP.
3.16

Given the entry Cc1nc(C(F)F)c(C(=O)Nc2ccc(F)cc2-c2ccc(Cl)c(C)c2)s1 [Compound 2.21] , report its measured chromatographic logP.
3.68

Given the entry Cc1nc(C(F)F)c(C(=O)Nc2ccc(F)cc2-c2ccc(Cl)c(Cl)c2)s1 [Compound 2.12] , report its measured chromatographic logP.
3.63

Given the entry Cc1nc(C(F)(F)F)c(C(=O)Nc2c(F)cccc2-c2ccc(Cl)c(Cl)c2)s1 [Compound 2.14] , report its measured chromatographic logP.
3.68

Given the entry Cc1nc(C(F)F)c(C(=O)Nc2c(F)cccc2-c2ccc(Cl)c(Cl)c2)s1 [Compound 2.13] , report its measured chromatographic logP.
3.43

Given the entry Cc1nc(C(F)F)c(C(=O)Nc2ccc(F)cc2-c2ccc(Cl)c(F)c2)s1 [Compound 2.17] , report its measured chromatographic logP.
3.36

Data provenance: patent US7977363B2
